Experiment: chemical genetic growth profiling, strain panel (AID 1159580);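 also: tested at 20 µM; growth read once vehicle control cultures reached saturation at 30 °C; 1 = growth at the plate median or of vehicle wells; lower values mean less growth of the strain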
Details: S. cerevisiae deletion strains, growth OD, locus YNL209W, strain ssb2, stronger effect = lower value
Out of some 5,500 compounds screened, about 2,000 (36%) were called active. About 18% were inconclusive and are not listed. Some of the results follow.
This section presents compounds with their documented normalized growth values.
In your answer, state the number alone without any accompanying words.

Known results for compounds:
[[record]]
compound = "CC(=O)Oc1ccc2c(c1)CCC1C2CC[C@@]2(C)C1CC[C@@H]2OC(C)=O (some centres not stated)"
quantitative_readout = 1.02

[[record]]
compound = "COc1cc(OC)c2c(c1Cl)OC1(C2=O)C(O)=CC(=O)CC1C (configuration not stated)"
quantitative_readout = 1.03

[[record]]
compound = "CC1=C2CCC3C(CC[C@]4(C)C(=O)CCC34)[C@@]2(C)CCC1=O (some centres not stated)"
quantitative_readout = 0.962

[[record]]
compound = "O=c1c(-c2ccc3c(c2)OCO3)coc2cc(O)ccc12"
quantitative_readout = 0.987

[[record]]
compound = "CC1(C)C=Cc2c(cc3occ(-c4ccc5c(c4)OCO5)c(=O)c3c2O)O1"
quantitative_readout = 0.738


### Prompt Which normalized growth value is on record for CC(=O)O[C@H]1CC2CCC3C(CC[C@@]4(C)C3C[C@H]([N+]3(C)CCCCC3)[C@@H]4OC(C)=O)[C@@]2(C)C[C@@H]1[N+]1(C)CCCCC1 (some centres not stated) ?
### Response 1.01

### Prompt What do you have for Cc1nccc2c1[nH]c1ccccc12 ?
### Response 0.993

### Prompt Entry C[C@]12CCC3C(CC[C@H]4C[C@@H](O)CC[C@]34C)C1CCC2=O (some centres not stated) please
### Response 0.965

### Prompt // same read-out, input: CC(=O)c1ccc2c(c1)N(CCCN(C)C)c1ccccc1S2
### Response 0.99

### Prompt Quick one: COc1cc2c(cc1-c1coc3c4c(c(OC)cc3c1=O)OC(C)(C)C=C4)OCO2
### Response 1

### Prompt Similarly, CCOC(=O)C1=C(C)NC(C)=C(C(=O)OC)C1c1cccc([N+](=O)[O-])c1 (configuration not stated) ?
### Response 1.01

### Prompt What about CC1(C)C[C@@H]2C(=O)CC[C@H]3O[C@]3(C)CC[C@H]21 ?
### Response 1.01

### Prompt Next compound: C[C@]12CCC3c4ccc(O)cc4CCC3C1CC[C@@H]2OC(=O)CCC1CCCC1 (some centres not stated)
### Response 1.01

### Prompt Repeat with COc1ccc2c(=O)c(-c3cc4c(cc3OC)OCO4)coc2c1
### Response 1.01

### Prompt Same question, FC(F)(F)COCC(F)(F)F this time
### Response 1.03

### Prompt Repeat for the following compound: CCCc1nc(C(C)(C)O)c(C(=O)OCc2oc(=O)oc2C)n1Cc1ccc(-c2ccccc2-c2nn[nH]n2)cc1
### Response 0.971

### Prompt Now try COc1cc(OC)c2c(=O)c(-c3ccc4c(c3)OCO4)coc2c1 .
### Response 0.985

### Prompt Let us now turn to Cc1cc(C)nc(NS(=O)(=O)c2ccc(N)cc2)n1
### Response 0.975

### Prompt Can you check COc1ccc2[nH]cc(CCNC(C)=O)c2c1 next?
### Response 0.971

### Prompt Another compound: C=C1CC2C(CCC3(C)C(=O)CCC23)C2(C)C=CC(=O)C=C12 (configuration not stated)
### Response 0.957

### Prompt Now consider CC(=O)Oc1ccc2c(c1)CCC1C2CCC2(C)C1CC(OC(C)=O)C2OC(C)=O (configuration not stated) and answer again.
### Response 0.976

### Prompt What do we get for COc1cc(O)c(C(=O)O)c(O)c1 ?
### Response 0.981
